Where do these numbers come from? They come from patent US4120857A.

# System: ventricular fibrillation by chloroform
# Experiment description: Mouse Chloroform Test (antiarrhythmic activity)
# Type: in vivo, female swiss albino mice
# Setup conditions: Mus musculus, po, mice; read-out: ED50, dose required to protect 50% of the test animals against development of ventricular fibrillation by chloroform
Response field label takes 1 when ED50 is strictly below 20 mg/kg and -1 in all other cases.

Prompt line: Record CN1C(C)(C)[C@H]2CC[C@]1(C)C[C@H]2OCCCNC(=O)C(c1ccccc1)c1ccccc1 (relative stereo) : is its ED50 strictly below 20 mg/kg?
Response line: 1

Prompt line: Record CN1C(C)(C)[C@H]2CC[C@]1(C)C[C@H]2OC(=O)c1ccc(N)cc1 (relative stereo) : is its ED50 strictly below 20 mg/kg?
Response line: -1

Prompt line: Record CCCC(=O)O[C@@H]1C[C@@]2(C)CC[C@@H]1C(C)(C)N2C (relative stereo) : is its ED50 strictly below 20 mg/kg?
Response line: -1

Prompt line: Record CN1C(C)(C)[C@H]2CC[C@]1(C)C[C@H]2OC(=O)Nc1ccccc1 (relative stereo) : is its ED50 strictly below 20 mg/kg?
Response line: -1

Prompt line: Record CN1C(C)(C)[C@H]2CC[C@]1(C)C[C@H]2OCCCNC(=O)c1ccccc1 (relative stereo) : is its ED50 strictly below 20 mg/kg?
Response line: 1
